Recorded values, source PubChem BioAssay (EPA / NIEHS).

experiment: BSK_3C_SRB: Viability Assessment in the BioMAP Diversity Plus: 3C Assay (AID 2283023); details: primary human endothelial cells (HUVEC);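 note: cells read 24 h after compound dosing; fitted both ways against DMSO so a hit may be signal rise or drop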
Activity calls are given as the source filed them. Rule for the calls: active = hit-call score of the fitted dose curve at least 0.9, where 1 is the maximum; inactive = score below 0.9.

- Compound: "COCN(COC)c1nc(N(COC)COC)nc(N(COC)COC)n1"
  AC50: "inactive"
- Compound: "Cc1ccc(N=Nc2c(O)ccc3ccccc23)c(C)c1"
  AC50: "inactive"
- Compound: "COc1cccc(O)c1"
  AC50: "inactive"
- Compound: "O=C(c1ccccc1)c1ccccc1"
  AC50: "inactive"
- Compound: "C=CC(C)(CCC=C(C)C)OC(C)=O (configuration not stated)"
  AC50: "28.9 µM (active)"
- Compound: "OCC(CO)(CBr)CBr"
  AC50: "inactive"
- Compound: "CS(=O)(=O)c1ccc([C@@H](CC2CCCC2)C(=O)Nc2cnccn2)cc1Cl"
  AC50: "30.3 µM (active)"
